Hello, the source for this data is PubChem BioAssay (NCI), in case you need it.

# System: SR leukemia
# Method notes: NCI-60 one-dose screen, 48 h (100 = growth as untreated, 0 = no growth, -100 = all killed)
# Assay conditions: 10 µM
Compounds without any hit were thinned out: in the full panel of roughly 83,000, 20% have a hit.
Measurement type: growth (%)
The reply should contain only the number, in %.

Past entries and their recorded results:
# Compound string, growth (%)
measured = [
    ("C#CC[Se]C(=O)c1ccc(C(=O)[Se]CC#C)s1", 26.8),
    ("COc1cc(OC)c(S(=O)(=O)N(CCCl)CCCl)cc1C(=O)/C=C/c1cc(OC)c(OC)c(OC)c1", 2.75),
]

Recorded result, `O=C(/C=C/c1ccccc1)c1nc2ccccc2n1Cc1ccc(Br)cc1` , growth: -19.5

Recorded result, `O=C(NC([Se])=NC1CCCCC1)c1ccc2c(c1)OCO2` , growth: 60.3

Recorded result, `CC[C@]12C=CCN3CC[C@@]4(c5ccc(OC)cc5N(C)[C@H]4[C@@](O)(C(=O)OC)[C@@H]1OC(=O)CCCC[P+](C1CCCCC1)(C1CCCCC1)C1CCCCC1)[C@@H]32` , growth: 19.5

Recorded result, `CC(=O)Oc1ccccc1C(=O)NC([Se])=NC1CCCCC1` , growth: 41.4

Recorded result, `CC(C)N=C([Se])NC(=O)c1cccs1` , growth: 2.39

Recorded result, `O=C(/C=C/c1cccc(Br)c1)c1nc2ccccc2n1Cc1ccc(F)cc1` , growth: -7.31

---

Listed here are molecules together with their documented growth.
# System: CAKI-1 renal
# Method notes: NCI-60 one-dose screen, 48 h (100 = growth as untreated, 0 = no growth, -100 = all killed)
# Assay conditions: 10 µM
Compounds without any hit were thinned out: in the full panel of roughly 83,000, 20% have a hit.
The reply should contain only the number, in %.

Past entries and their recorded results:
# Compound string, Reported measurement
measured = [
    ("C#CC[Se]C(=O)c1ccc(C(=O)[Se]CC#C)s1", 106),
    ("COc1cc2cc(C(=O)N3C[C@@H](CCl)c4c3cc(OC(=O)N3CCN(C)[C@@H]5CSSC[C@H]53)c3ccccc43)[nH]c2c(OC)c1OC", -9.91),
]

Recorded result, `CC(C)C[C@H](NC(=O)CNC(=O)C[C@H]1O[C@@H]2OC3(C)CC[C@H]4[C@H](C)CC[C@@H]([C@H]1C)[C@@]24OO3)B(O)O` , growth: 19.2

---

# System: MDA-MB-435 melanoma
# Method notes: NCI-60 one-dose screen, 48 h (100 = growth as untreated, 0 = no growth, -100 = all killed)
# Assay conditions: 10 µM
The panel holds about 83,000 compounds, 20% with a hit somewhere; the sample as a whole holds those more often.
Measurement type: growth (%)
The reply should contain only the number, in %.

# Compound string, Measured on, growth [%]
measured = [
    ("CC1=C(COCCOC(=O)c2ccc(S(=O)(=O)F)cc2)C2=C(C)C3(CC3)[C@@](C)(O)C(=O)C2=C1", "MDA-MB-435 melanoma", 3.24),
    ("CC[C@]12C=CCN3CC[C@@]4(c5ccc(OC)cc5N(C)[C@H]4[C@@](O)(C(=O)OC)[C@@H]1OC(=O)CCCC[P+](c1ccc(C)cc1)(c1ccc(C)cc1)c1ccc(C)cc1)[C@@H]32", "MDA-MB-435 melanoma", -86.8),
    ("COc1ccc2cc([C@H](C)C(=O)[Se]CCC#N)ccc2c1", "MDA-MB-435 melanoma", -69.7),
]

Recorded result, `COc1cc2cc(C(=O)N3C[C@@H](CCl)c4c3cc(OC(=O)N3CCN(C)[C@@H]5CSSC[C@@H]53)c3ccccc43)[nH]c2c(OC)c1OC` , growth: -86.8
